Recorded IC50 for the following compounds
Tested on: K562/ADR (K562adr, drug-resistant chronic myeloid leukemia) cells
Procedure details: MTT cell growth inhibition, leukemia cells
Format: cell-based
Recorded conditions: Homo sapiens; K562/ADR, 72 h, MTT; read-out: IC50
Field format: number, assumed µg/mL, no unit text.

Worked examples follow.
| Smiles data | Target or test system | IC50, µg/mL |
| --- | --- | --- |
| COc1ccc2cc1Oc1ccc(cc1)C[C@H]1c3cc(c(OC)cc3CCN1C)Oc1c(OCC3CC3)c(OC)cc3c1[C@H](C2)N(C)CC3 | K562/ADR (K562adr, drug-resistant chronic myeloid leukemia) cells | 0.28 |
| COc1ccc2cc1Oc1ccc(cc1)C[C@H]1c3cc(c(OC)cc3CCN1C)Oc1c(OC3CCCC3)c(OC)cc3c1[C@H](C2)N(C)CC3 | K562/ADR (K562adr, drug-resistant chronic myeloid leukemia) cells | 0.43 |

Reported IC50, compound `COc1cc(OC)cc(C(=O)Oc2c(OC)cc3c4c2Oc2cc5c(cc2OC)CCN(C)[C@H]5Cc2ccc(cc2)Oc2cc(ccc2OC)C[C@@H]4N(C)CC3)c1` : ____
0.48
